Assay: PSAC antagonists in infected red cells, primary screen, cell-based, P. falciparum Indochina, OD700, 18 h (AID 1157)
Settings: P. falciparum Indochina infected erythrocytes, osmotic lysis OD700, 18 h; higher = more signal, called active from +8 up or from −8 down
measured parameter: z-score
Keep it simple and answer with nothing but the number.

Short answer for O=C(O)C1=CC[C@H]2C(=O)N(c3ccccc3)C(=O)[C@@H]12 : z-score was 0.707

Short answer for [N-]=[N+]=NCc1ccccc1[C@H]1OC(c2ccc(OCCCO)cc2)=N[C@@]1(Cc1ccccc1N=[N+]=[N-])C(=O)O : z-score was 0.395

---

Molecular target: NADPH oxidase 5 (Homo sapiens)
Test: NOX5-dependent H2O2 signal modulators, primary screen, NOX inhibitor project, cell-based, HEK293-NOX5, Amplex Red fluorescence (AID 1161)
Settings: HEK293-NOX5, ionomycin, 45 min, higher = more signal
# z-score per entry
Keep it simple and answer with nothing but the number.

1) Cc1c(NC(=O)/C(C#N)=C/C=C/c2ccc([N+](=O)[O-])cc2)c(=O)n(-c2ccccc2)n1C = 0.714
2) C#CCN(C(=O)OC(C)(C)C)[C@H](CO)c1ccccc1 = 0.745
3) COC(=O)C(CC#Cc1ccc2c(c1)[C@]1(C(=O)N2)[C@H](c2ccc(OCCO)cc2)N2[C@H](c3ccccc3)[C@H](c3ccccc3)OC(=O)[C@H]2[C@@H]1C(N)=O)C(=O)OC = 0.345

Short answer for CC(C)c1ccc(NN2C(C(O)C3=C[C@H]4C[C@@H](C3)C4(C)C)C=CC3C(=O)N(c4ccccc4)C(=O)C32)cc1 (some centres undefined) : z-score was -1.62

---

# composite z-score per entry
Biological target: Alpha-bungarotoxin (Bungarus multicinctus)
Assay: alpha-bungarotoxin binders on microarray, profiling panel, artefact control for SMM control protein annotation, biochemical, small-molecule microarray, Alexa647 label, 635/667 nm fluorescence (AID 1117)
Settings: alpha-BTX-A647 binding fluorescence, higher = more signal

1. COCCOC(=O)N1C(=O)[C@@]2(c3cc(C#CC4(O)CCCCCC4)ccc31)[C@H](C(N)=O)[C@H]1C(=O)O[C@H](c3ccccc3)[C@H](c3ccccc3)N1[C@@H]2c1ccc(OCCO)cc1 = 1.61
2. CC(C)N1C(=O)[C@@]2(Cc3ccccc31)c1ccccc1C(=O)N(Cc1ccccc1C(F)(F)F)[C@H]2c1ccc(CO)cc1 = -0.0261

Short answer for CN1C2C=C(c3ccc(CO)cc3)C(C3C(=O)N(C(N)=O)C(=O)C32)C1C1CC1 (configuration not stated) : composite z-score was 0.334

Short answer for COC(=O)[C@]1(Cc2ccccc2CN=[N+]=[N-])N=C(c2ccc(OCCCO)cc2)O[C@@H]1c1ccccc1N=[N+]=[N-] : composite z-score was 0.37

Short answer for CC(C)[Si](C#Cc1ccccc1)(O[C@H](c1ccccc1)c1cn(Cc2ccccc2)nn1)C(C)C : composite z-score was 0.579

Short answer for CCOC(=O)C[C@H]1[C@H](OC(=O)c2ccccc2-c2ccccc2)[C@@H](NC(=O)CC(C)C)c2cc(OCCCO)ccc2N1C(=O)c1ccccc1 : composite z-score was 0.23

Short answer for COc1cccc(C)c1NC(=O)O[C@H]1[C@H](OC(=O)Nc2ccc3c(c2)OCO3)[C@H](OC(=O)Nc2ccc3c(c2)OCO3)[C@@H](OC)O[C@@H]1CO : composite z-score was 1.57
